Each recorded value in this set is attributed to the supplement of paper PMC10567573.

- protocol text: protein stability index of a GFP-peptide fusion (GPS, HEK-293T) (PSI 1-6); higher = more stable;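 also: 24-mer peptide tiles fused after GFP, lentivirally expressed, FACS-sorted into six equal bins by GFP/DsRed ratio, decoded by Illumina sequencing, PSI is the read-weighted mean bin number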
- condition context: treatment: MLN4924 1 uM, 8 h; c terminus: a fixed tail appended
outcome measure: protein stability index
Answer with a number only.

[Q] Write down protein stability index measured for item TRLAFELFAEEQAEGPNRLLYKDG [LPCAT4]
[A] 4.02

[Q] Write down protein stability index measured for item IATGPFVAFGIEADDESLLRTSNG [DNAAF3]
[A] 4.01

[Q] Write down protein stability index measured for item ERYQKIGDTKRATPIEVLCENFPE [CSNK1G3]
[A] 4.44

[Q] Write down protein stability index measured for item TSEESRPRLSQLSVTDVTTSSLRL [TNXB]
[A] 4.24

[Q] Write down protein stability index measured for item SNKVQDSAPVETPRGKPPLNTRSQ [HMOX1]
[A] 5.26

###

- protocol text: protein stability index of a GFP-peptide fusion (GPS, HEK-293T) (PSI 1-6); higher = more stable
- condition context: treatment: DMSO; c terminus: a fixed tail appended
outcome measure: protein stability index
Answer with a number only.

[Q] Write down protein stability index measured for item ALRVLAEQNIIPSATNVTCYYQPA [TENT5C]
[A] 2.31

[Q] Write down protein stability index measured for item YYSCERAKKAMGYQPLVTMDDAME [NSDHL]
[A] 3.97

[Q] Write down protein stability index measured for item RAGEQRKRSQSMKSYPSSELRNMC [CLCN6]
[A] 4.29

[Q] Write down protein stability index measured for item VKIESVKLDFKEKAQAKVGSLDNA [MAP2]
[A] 3.5

###

For each entry below, report its protein stability index value.
- protocol text: protein stability index of a GFP-peptide fusion (GPS, HEK-293T) (PSI 1-6); higher = more stable
- condition context: treatment: MLN4924 1 uM, 8 h; c terminus: a fixed tail appended
Answer with a number only.

[Q] Write down protein stability index measured for item WLPYLYTLQGLYLVYHPVQLSTPH [DHCR7]
[A] 2.91

[Q] Write down protein stability index measured for item LKNHFQSVLEQLELQEKQKNEKLI [TAF7L]
[A] 2.95

[Q] Write down protein stability index measured for item RTIYHMFIAGLCVFIISTLAIDFI [SOAT2]
[A] 2.96

[Q] Write down protein stability index measured for item LEISDQEVLEWYTAKDFIVGKSLT [EFHC1]
[A] 2.92

[Q] Write down protein stability index measured for item EFLRVQEERILHQQVKCIITEEKV [VPS39]
[A] 2.92

[Q] Write down protein stability index measured for item RSQHARKETEFLRLKRTRLGLDDF [STK38L]
[A] 3.04

###

For each entry below, report its protein stability index value.
- protocol text: protein stability index of a GFP-peptide fusion (GPS, HEK-293T) (PSI 1-6); higher = more stable
- condition context: treatment: DMSO; c terminus: a fixed tail appended
Answer with a number only.

[Q] Write down protein stability index measured for item PQCIKEEDTPSDNDSGICMSPESY [ATF4]
[A] 5.2

[Q] Write down protein stability index measured for item STCFERPCFKWYTSPWSECTKTCG [ADAMTSL2]
[A] 2.47

[Q] Write down protein stability index measured for item QQYAAQQYPGNYEQQQILIRQLQE [ACBD3]
[A] 4.07

[Q] Write down protein stability index measured for item NSDMQILTASGDGTCALWDVESGQ [GNB5]
[A] 4.81

[Q] Write down protein stability index measured for item EKSHQVLAQLLDTLLAIGTKLPEN [INTS4]
[A] 3.14

[Q] Write down protein stability index measured for item LHTAREFSEEDEEETTSQDWGTPR [RTN2]
[A] 5.4

[Q] Write down protein stability index measured for item NDRVQTIITQLEDSRRVTKENSHQ [TRIM63]
[A] 4.99

[Q] Write down protein stability index measured for item DQVSACIPVFRLARRRKKILFYCH [ALG2]
[A] 2.22

[Q] Write down protein stability index measured for item SCIMENGHQPGTGPGDGPPEIAQN [SMTNL2]
[A] 4.95

[Q] Write down protein stability index measured for item VFQHHQYLSPLERKRLAREMQLSE [VENTX]
[A] 2.81

[Q] Write down protein stability index measured for item EEEEERWEWSPAGLQSYQQALLRI [SERTAD3]
[A] 3.46

[Q] Write down protein stability index measured for item RDTFYKEQLERIERKNAEMYKLSS [CHCHD6]
[A] 3.5

[Q] Write down protein stability index measured for item SISDVKFSHSGRYIMTRDYLTVKV [PPP2R2B]
[A] 2.37

[Q] Write down protein stability index measured for item TLLNPRMIVDVTPYMNPSPFTVSP [CLCN6]
[A] 2.32

[Q] Write down protein stability index measured for item HSTLEYKVKERLGTLKNPPKKKMK [LCOR]
[A] 4.47

###

- protocol text: protein stability index of a GFP-peptide fusion (GPS, HEK-293T) (PSI 1-6); higher = more stable
- condition context: treatment: MLN4924 1 uM, 8 h; c terminus: a fixed tail appended
outcome measure: protein stability index

[Q] Write down protein stability index measured for item PHFLQGGPFPLPYTAPGGYLDVGS [TBX6]
[A] 2.76

[Q] Write down protein stability index measured for item EKGRALQIRDWRGGRLENQKPRGL [ZSWIM9]
[A] 4.2

[Q] Write down protein stability index measured for item SPPVDLFATASAAVPVSTSKPSSD [SNAP91]
[A] 5.33

[Q] Write down protein stability index measured for item EDSESLRIKEVEHMTRHLEESEKA [LRRC45]
[A] 5.51

[Q] Write down protein stability index measured for item AGEREDLWAGSKGKEFGYFPRDAV [MIA2]
[A] 3.86

[Q] Write down protein stability index measured for item FERIMKYERLARILLQEIPIRSIS [FBXO39]
[A] 2.35

[Q] Write down protein stability index measured for item YSAEQFCVSRNSHLTSVTSESEQE [CD207]
[A] 5.13

[Q] Write down protein stability index measured for item IVTLRHVLAAKERRCGELKRKLGL [TPD52L3]
[A] 2.18

[Q] Write down protein stability index measured for item KHYRFTHAEIIAWIRICRPGSIIG [CDC14A]
[A] 2.83

[Q] Write down protein stability index measured for item FLNDRLANYLEKVRQLERENAELE [KRT36]
[A] 3.54

[Q] Write down protein stability index measured for item IVGYAFHFPHLLSPQIQRSAHRAL [TMEM175]
[A] 2.54

[Q] Write down protein stability index measured for item EPMRDQVARTHLTEDTPKVNADIE [NSDHL]
[A] 5.56

[Q] Write down protein stability index measured for item CSPSQMDLLCAQLQLPQLSDLGLL [FANCE]
[A] 2.13

[Q] Write down protein stability index measured for item RFPYLCQKNGGGAYLVPYLVLLII [SLC6A17]
[A] 2.49

[Q] Write down protein stability index measured for item RMLSKENKILQVFWEEHKASLGRE [CBY2]
[A] 3.35

[Q] Write down protein stability index measured for item SKPWHWPINYQGLRFSGVNDTDFR [POMT2]
[A] 2.52

[Q] Write down protein stability index measured for item QYFTNRLDMSQNVSLVTAELSKDA [SLC29A1]
[A] 4.25

[Q] Write down protein stability index measured for item IQLFEELQELLTHDTKDQSPSRAP [HMOX1]
[A] 3.61

[Q] Write down protein stability index measured for item LDNSRSILKRRYYRQHCTLELGSY [CTDNEP1]
[A] 2.42

[Q] Write down protein stability index measured for item SNHSAQDSAVENLLLLSKAKLVPS [IKZF1]
[A] 3.95

[Q] Write down protein stability index measured for item MAPKTKKGCKVTLPEKPVKLASHT [FBF1]
[A] 4.21

[Q] Write down protein stability index measured for item DKPLPPPPPGSLSRTQEPSLGKQK [SOAT2]
[A] 5.41

[Q] Write down protein stability index measured for item DRLEEQLPWLSLRALKFRERDALE [DNAAF3]
[A] 3.42

[Q] Write down protein stability index measured for item RQAIFPDTWTLTEEHGLQQERPRP [PXN]
[A] 4.25

[Q] Write down protein stability index measured for item KAILKNISVLAFSVCFIFTITIGM [SLC29A1]
[A] 2.96

[Q] Write down protein stability index measured for item LLFEYPESSSPARGIAIVSVLVIL [KCNA4]
[A] 3

[Q] Write down protein stability index measured for item MERSPDVSPGPSRSFKEELLCAVC [TRIM35]
[A] 3.6

[Q] Write down protein stability index measured for item HLTRGRKMAHVIAACLYLVCRTEG [BRF1]
[A] 2.6

[Q] Write down protein stability index measured for item MLELRHRGSCPGPREAVSPPHREG [CDS1]
[A] 4.39

[Q] Write down protein stability index measured for item ECHIVVLTDDDVVDWDEEYPPQMG [BTBD10]
[A] 3.73

[Q] Write down protein stability index measured for item GLRAGFSSTSYRRTFGPPPSLSPG [PRPH]
[A] 2.93

[Q] Write down protein stability index measured for item VLRLCCKKLKIFAMPMQDIKMILK [PRAME]
[A] 2.73

[Q] Write down protein stability index measured for item SALEDQGSNPSSSNSSQDSLHKGA [PPFIA4]
[A] 5.49

[Q] Write down protein stability index measured for item KEENEAESDVKHRTRDYKKTSLAP [PRIM1]
[A] 5.37

[Q] Write down protein stability index measured for item KFENLCKLMKEILDKKVEKVTISN [HSP90AB1]
[A] 2.75
